target: T1, human HER-2 protein (soluble / recombinant, used in SPR) (human, UniProt P04626 23-652); assay: SPR, immobilized HER2 protein
T1 construct: also called immobilized HER2 protein; recombinant HER-2
// koff lookup, one value per entry
Return type: number; implicit unit s⁻¹.

Below, each entry is followed by its recorded koff result.
clone F1 Fab (P1F1, from the phage display Fab library) (Fab, V domains shown) VH: QVQLVESGPGLVKPSGTLSLTCAVSGGSISSSNWWSWVRQPPGKGLEWIGEIYHSGSTNYNPSLKSRVTISVDTSKNQFSLKLSSVTAADTAVYYCARMGANSGGYLYGMDVWGQGTTVTVSS VL: QTVVTQEPSFSVSPGGTVTLTCGLSSGSVSTSYYPSWYQQTPGQAPRTLIYSTNTRSSGVPDRFSGSILGNKAALTITGAQADDESDYYCVLYMGSGIWVFGGGTKLTVLG; 0.00502
PFG1 Fab (Fab, V domains shown, Printed entries run through CL and CH1 (Fab chains); Label G1 tied to PFG1 by inference) VH: EVQLVQSGGGVVQPGRSLRLSCAASGFTFSSYGMHWVRQAPGKGLEWVAVIWYDGSNKYYADSVKGRFTISRDNSKNTLYLQMNSLRAEDTAVYYCATMTTEDYWGQGTLVTVSS VL: QAVLTQPSSLSASPGASASLTCTLRSGINVGTYRIYWYQQKPGSPPQYLLRYKSDSDKQQGSGVPSRFSGSKDASANAGILLISGLQSEDEADYYCMIWHSSAWVFGGGTKLTVLG; 0.000324
PFE5 Fab (Fab, V domains shown, Printed entries run through CL and CH1 (Fab chains); Label E5 tied to PFE5 by inference) VH: EVQLVQSGGGVVQPGRSLRLSCAASGFTFSSYAMHWVRQAPGKGLEWVAVISYDGSNKYYADSVKGRFTISRDNSKNTLYLQMNSLRAEDTAVYYCARSRGYYGMDVWGQGTTVTVSS VL: DIQMTQSPSSLSASVGDRVTITCRASQGISSWLAWYQQKPGKAPKLLIYAASSLQSGVPSRFSGSGSGTDFTLTISSLQPEDFATYYCQQANSFPPTFGPGTKVDIKR; 0.00152
PFF5 Fab (Fab, V domains shown) VH: QVQLQESGPGLVKPSETLSLTCTVSGGSISSSSYYWGWIRQPPGKGLEWIGSIYYSGSTYYNPSLKSRVTISVDTSKNQFSLRLSSVSAADTAVYYCARYAPDSSGYLVAFDIWGQGTMVTVSS VL: QAVVIQEPSFSVSPGGTVTLTCGLSSGSVSTTYYPSWYQQTPGQAPRTLIYSTNTRSSGVPDRFSGSILGNKAALTITGAQADDESDYYCVLYMGNGISVFGGGTKLTVLG; 0.0141

Documented koff of PFG3 Fab (Fab, V domains shown, Printed entries run through CL and CH1 (Fab chains); Label G3 tied to PFG3 by inference) VH: EVQLVQSGAEVKKPGTSVTVSCRASGFTFSDYYIHWVRQAPGQGLEWMGWVSAYNGDTNYAQKFQGRVTVTTDTSTSTAYMELRSLRSDDTAVYFCAREIASYSGSYYDYWGQGTLVTVSS VL: QAVVLQEPSFSVSPGGTVTLTCGLTSGAVSSSYYPSWYQQTPGQAPRTLIYNTDIRFSGVPDRFSGSILGNKAALTITGAQADDESDYYCVLYMGSGISVFGGGTKLTVLG : 0.0158

These entries and their values trace back to patent US20210139605A1.
